Where do the numbers come from? From patent US12077503B2.

- Tested on: redroot pigweed (Amaranthus retroflexus)
- PROTOCOL SUMMARY: Test G Pre-Emergence Protocol
- Assay type: in vivo
- ASSAY CONTEXT: Amaranthus retroflexus, pre-emergence, 312 h, 250 g ai/ha, evaluated after 13 days, read-out: Pigweed, Redroot damage rating (100=total damage to plant; 0=no damage to plant)
PARAMETER: pest or weed control at 250 g/ha (%)
State just the number; it will be interpreted in %.

The examples below pair each entry with its known result.
COMPOUND	PARAMETER	VALUE OBSERVED
CN1C[C@H](c2ccc(C(F)(F)F)cc2)[C@@H](C(=O)Nc2ccc3ncccc3n2)C1=O (racemic) [Compound 1833]	pest or weed control at 250 g/ha	0
CN1CC(C2CCN=C(C(C)(C)C)N2)C(C(=O)Nc2ccc(F)c(F)c2F)C1=O (stereo not shown) [Compound 1771]	pest or weed control at 250 g/ha	0
COC(=O)c1cc([C@H]2CN(C)C(=O)[C@@H]2C(=O)Nc2cccc(F)c2F)ccc1F (racemic) [Compound 1678]	pest or weed control at 250 g/ha	0
CN1C[C@H](c2cccc(C(F)F)c2)[C@@H](C(=O)Nc2ccccc2S(C)(=O)=O)C1=O (racemic) [Compound 1800]	pest or weed control at 250 g/ha	10
CN1C[C@@H](c2ccc(C(F)(F)F)cc2)[C@H](C(=O)Nc2cc(Cl)n[nH]2)C1=O (racemic) [Compound 1632]	pest or weed control at 250 g/ha	0

Form: compound = CCS(=O)(=O)c1ccccc1NC(=O)[C@H]1C(=O)N(C)C[C@@H]1c1ccc(C(F)(F)F)cc1 (racemic) [Compound 1664] ; pest or weed control at 250 g/ha = 100

Record CN1C[C@@H](c2ccc(C(F)(F)F)cc2)[C@H](C(=O)Nc2ccnc(Cl)c2F)C1=O (racemic) [Compound 1656] , field pest or weed control at 250 g/ha: 0

====

- System: wheat (Triticum aestivum)
- PROTOCOL SUMMARY: Test A postemergence
- Assay type: in vivo
- ASSAY CONTEXT: 125 g ai/ha, postemergence; visual rating after approx. 10 d, 0 to 100 scale (0 no effect, 100 complete control)
Plant response rating, Wheat reference
Number only, please.

// solved cases for Plant response rating, Wheat follow
MOLECULE	VALUE OBSERVED
CN1CC(c2c(F)cccc2F)C(C(=O)Nc2cccc(F)c2F)C1=O (stereo not drawn) [Compound 547]	0
Cc1ccc(C2CNC(=O)C2C(=O)Nc2cccc(F)c2F)cc1C(F)(F)F (stereo not drawn) [Compound 642]	0

Entry under test: C=CCN1CC(c2cccc(C(F)(F)F)c2)C(C(=O)Nc2cccc(F)c2F)C1=O (stereo not drawn) [Compound 606] . Its Plant response rating, Wheat was 0

====

- Tested on: ryegrass, Italian (Italian ryegrass, Lolium multiflorum)
- PROTOCOL SUMMARY: Test A preemergence
- Assay type: in vivo
- ASSAY CONTEXT: Lolium multiflorum, pre-emergence, 240 h, 125 g ai/ha, Preemergence, visual injury rating after approximately 10 d; read-out: Ryegrass, Italian plant response rating (0 to 100 scale, 0 is no effect, 100 is complete control)
PARAMETER: pest or weed control at 125 g/ha (%)
Answer format: numeric, % implied, no suffix.

COMPOUND	UNIT	pest or weed control at 125 g/ha
O=C(Nc1cccc(F)c1F)[C@H]1C(=O)N(OCc2ccccc2)CC[C@@H]1c1cccc(Cl)c1 [Compound 997]	%	0
CCOc1cccc([C@H]2CN(C)C(=O)[C@@H]2C(=O)Nc2ccc(F)cc2F)c1 [Compound 963]	%	20
CSc1ccccc1NC(=O)[C@H]1C(=O)N(C)C[C@@H]1c1cc(C)c(Br)c(C)c1 [Compound 1025]	%	0
Cc1ccc(NC(=O)[C@H]2C(=O)N(C)C[C@@H]2c2cc(F)cc(F)c2)cc1 [Compound 967]	%	0

Readout pest or weed control at 125 g/ha for O=C1NC[C@H](c2ccc3c(c2)OCO3)[C@H]1C(=O)Nc1ccc(F)cc1F [Compound 1026] , test system ryegrass, Italian (Italian ryegrass, Lolium multiflorum), was 0

Lab note: compound CSc1ccccc1NC(=O)[C@H]1C(=O)N(C2CC2)CC[C@@H]1c1ccc(F)cc1 [Compound 1005] tested on ryegrass, Italian (Italian ryegrass, Lolium multiflorum); recorded pest or weed control at 125 g/ha was 0

Lab note: compound Cc1c(F)cccc1NC(=O)[C@H]1C(=O)N(C)C[C@@H]1c1cc(F)cc(C(F)(F)F)c1 [Compound 994] tested on ryegrass, Italian (Italian ryegrass, Lolium multiflorum); recorded pest or weed control at 125 g/ha was 70
